Values were extracted from paper PMC3103050.

target: PCNA (UniProt P12004 1-261); test: SPR
Sequence (P12004 whole entry): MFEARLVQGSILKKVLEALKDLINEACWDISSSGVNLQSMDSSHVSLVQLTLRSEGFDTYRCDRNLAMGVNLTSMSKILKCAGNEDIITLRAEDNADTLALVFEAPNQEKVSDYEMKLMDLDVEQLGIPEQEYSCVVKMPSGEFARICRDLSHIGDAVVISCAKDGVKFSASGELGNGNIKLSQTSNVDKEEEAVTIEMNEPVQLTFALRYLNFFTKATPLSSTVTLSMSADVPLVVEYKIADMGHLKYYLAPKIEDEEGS
measure_name: Kd

Lookup result for CKRPRPEGMQTLESFFKPLTH [η694-713FF] ; measured Kd: ~300 nM
